Molecular target: T1, recombinant cynomologus IL-23 (cynomolgus, limits assumed)
T1 construct: also called cynomolgus IL-23; cyno IL23
T1 chain 1: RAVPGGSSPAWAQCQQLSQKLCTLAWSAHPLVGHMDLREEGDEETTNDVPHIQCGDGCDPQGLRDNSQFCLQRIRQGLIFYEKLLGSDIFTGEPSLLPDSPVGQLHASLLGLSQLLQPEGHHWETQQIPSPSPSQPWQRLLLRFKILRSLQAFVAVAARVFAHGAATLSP
T1 chain 2: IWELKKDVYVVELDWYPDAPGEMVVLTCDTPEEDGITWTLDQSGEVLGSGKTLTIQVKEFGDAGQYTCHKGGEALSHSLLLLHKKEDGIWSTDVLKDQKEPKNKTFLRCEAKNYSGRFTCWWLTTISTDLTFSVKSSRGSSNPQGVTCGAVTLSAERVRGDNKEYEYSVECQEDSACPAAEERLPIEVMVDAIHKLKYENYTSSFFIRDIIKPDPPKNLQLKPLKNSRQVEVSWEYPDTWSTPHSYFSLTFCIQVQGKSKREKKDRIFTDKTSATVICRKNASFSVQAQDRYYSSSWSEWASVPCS
Test: IL-23/IL-23R inhibition ELISA (optimised protocol, OD450): plate coated with human IL23R Fc chimera, antibody pre-incubated with constant cynomolgus IL-23, bound IL-23 detected with biotinylated anti-human IL-12; purified antibody

- binder: "A3M0 (antibody, human IgG1, kappa, V domains shown, Full length chains; also called humanized mAb A3M0) VH: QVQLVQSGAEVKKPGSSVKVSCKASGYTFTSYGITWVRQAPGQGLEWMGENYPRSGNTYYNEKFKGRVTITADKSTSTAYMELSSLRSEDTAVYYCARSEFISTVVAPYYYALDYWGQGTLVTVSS VL: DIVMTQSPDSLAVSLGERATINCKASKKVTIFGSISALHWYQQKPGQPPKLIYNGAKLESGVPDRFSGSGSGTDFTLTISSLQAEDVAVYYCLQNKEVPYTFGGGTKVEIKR"
  IC50 (read off the curve): "~0.7 nM"
